The measured values listed here are drawn from patent US9963462B2.

In this section, each of the molecules is paired with its reported IC50.
- SYSTEM: SNAP-hSPR (sepiapterin reductase, SPR) (Homo sapiens, UniProt P35270)
- Sequence (P35270 whole entry): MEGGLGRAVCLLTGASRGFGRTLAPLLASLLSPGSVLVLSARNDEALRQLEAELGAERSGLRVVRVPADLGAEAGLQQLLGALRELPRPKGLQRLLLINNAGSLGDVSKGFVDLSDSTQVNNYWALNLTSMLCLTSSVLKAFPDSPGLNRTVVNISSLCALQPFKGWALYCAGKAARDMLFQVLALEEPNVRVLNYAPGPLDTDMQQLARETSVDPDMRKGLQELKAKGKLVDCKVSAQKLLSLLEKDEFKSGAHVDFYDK

| MOLECULE | IC50 / nM |
| --- | --- |
| Cc1c(C(=O)N2CCN(S(=O)(=O)c3ccc(Br)cc3)CC2)cnn1-c1nn2cccc2c(=O)[nH]1 | 1 |
| O=C(c1cnn(-c2cc3ccsc3c(=O)[nH]2)c1)N1CCC(C(F)(F)F)CC1 | 3 |
| Cc1c(C(=O)N2CCC(C#N)(c3ccccc3)CC2)cnn1-c1nn2cccc2c(=O)[nH]1 | 2 |
| Cc1c(C(=O)N2CCC(C(C)(O)C(F)(F)F)CC2)cnn1-c1nc2c(c(=O)[nH]1)CCC2 (centres unmarked) | 3 |
| Cc1c(C(=O)N2CC(c3ccnc(C(F)F)c3)C2)cnn1-c1nn2cccc2c(=O)[nH]1 | 2 |
| Cc1c(C(=O)N2CCC(C(C)(C)C)CC2)cnn1-c1nc2ccsc2c(=O)[nH]1 | 3 |
| O=C(c1cnn(-c2nc3c(c(=O)[nH]2)CCC3)c1)N1CCC(c2nc3cc(F)ccc3s2)CC1 | 5 |
| Cc1c(C(=O)N2CCN(C3CC3)CC2)cnn1-c1nn2cccc2c(=O)[nH]1 | 2 |
| CCC1(C#N)CCN(C(=O)c2cnn(-c3nn4cc(F)cc4c(=O)[nH]3)c2)CC1 | 4 |
| Cc1c(C(=O)N2CCn3cnnc3C2)cnn1-c1nn2cccc2c(=O)[nH]1 | 30 |
| Cc1c(C(=O)N2CCC3(CC2)CN(C(=O)OC(C)(C)C)C3)cnn1-c1nc2c(c(=O)[nH]1)CCC2 | 2 |
| CCN(CC)C(=O)c1cnn(-c2nc(C)cc(=O)[nH]2)c1C | 10 |
| O=C(c1cnn(-c2nn3cccc3c(=O)[nH]2)c1)N1CCC(S(=O)(=O)c2ccccc2)CC1 | 4 |
| Cc1nc(-n2ncc(C(=O)N3CCC(C(F)(F)F)CC3)c2C)cc(=O)[nH]1 | 4600 |
| CCCN(C)C(=O)c1cnn(-c2nc(C)cc(=O)[nH]2)c1C | 8 |
| Cc1cc(=O)[nH]c(-n2ncc(C(=O)N3CCC(C(F)(F)F)CC3)c2C(C)C)n1 | 10 |
| O=C(c1cnn(-c2nn3cccc3c(=O)[nH]2)c1)N1CCN(c2ccc(F)cc2F)CC1 | 4 |
